Details: in THF, 293.15 K
measurement type: solubility (mole fraction)
Output spec: single numeric token, no unit.

Ask: For CN(C)/C=C/C(=O)c1cccnc1 , what is its reported solubility (mole fraction)?
Reply: 0.0239

====

Conditions: in n-propanol, 283.15 K
measurement type: solubility (mole fraction)
// return a plain number; no unit text

Ask: State the recorded solubility (mole fraction) for this entry: CN(C)/C=C/C(=O)c1cccnc1
Reply: 0.0207

====

Conditions: in n-propanol, 313.15 K
measurement type: solubility (mole fraction)

Ask: Could you tell me which solubility (mole fraction) is on file for CN(C)/C=C/C(=O)c1cccnc1 ?
Reply: 0.0408

====

Conditions: in ethyl acetate, 308.15 K
measurement type: solubility (mole fraction)
Write no unit; give the number alone.

Ask: Returns the measured solubility (mole fraction) for the input molecule. Input: CN(C)/C=C/C(=O)c1cccnc1
Reply: 0.0228

====

Conditions: in DMF, 328.15 K
measurement type: solubility (mole fraction)
Lab note: jot down the number only; don't add units.

Ask: Need solubility (mole fraction) of CN(C)/C=C/C(=O)c1cccnc1 , thanks.
Reply: 0.588

====

Settings: in cyclohexane, 313.15 K
measurement type: solubility (mole fraction)
Could you respond with only the numeric value?

Ask: Name the reported solubility (mole fraction) value associated with the molecule CN(C)/C=C/C(=O)c1cccnc1
Reply: 0.0034

====

Conditions: in methanol, 283.15 K
measurement type: solubility (mole fraction)
Reply with the value as a number alone.

Ask: Need solubility (mole fraction), item CN(C)/C=C/C(=O)c1cccnc1
Reply: 0.0278

====

Settings: in acetone, 278.15 K
measurement type: solubility (mole fraction)
Number, no unit, nothing else.

Ask: Entry CN(C)/C=C/C(=O)c1cccnc1 : reported solubility (mole fraction) = ?
Reply: 0.00872

====

Settings: in cyclohexane, 323.15 K
measurement type: solubility (mole fraction)
// print number alone

Ask: Given CN(C)/C=C/C(=O)c1cccnc1 , state its recorded solubility (mole fraction).
Reply: 0.00493

====

Details: in ethyl acetate, 313.15 K
measurement type: solubility (mole fraction)

Ask: I would be grateful if you could share the reported solubility (mole fraction) for CN(C)/C=C/C(=O)c1cccnc1 .
Reply: 0.0259

====

Settings: in methanol, 323.15 K
measurement type: solubility (mole fraction)
Answer field: number only, no words.

Ask: For the compound CN(C)/C=C/C(=O)c1cccnc1 , what solubility (mole fraction) is on record?
Reply: 0.0648

====

Conditions: in 1,4-dioxane, 298.15 K
measurement type: solubility (mole fraction)

Ask: Suppose we examine the molecule CN(C)/C=C/C(=O)c1cccnc1 ; what solubility (mole fraction) value has been reported?
Reply: 0.0388

====

Details: in cyclohexane, 308.15 K
measurement type: solubility (mole fraction)
In your answer, state the number alone without any accompanying words.

Ask: Any idea what solubility (mole fraction) was measured for CN(C)/C=C/C(=O)c1cccnc1 ?
Reply: 0.00284

====

Settings: in THF, 323.15 K
measurement type: solubility (mole fraction)
Could you respond with only the numeric value?

Ask: Find the recorded solubility (mole fraction) belonging to CN(C)/C=C/C(=O)c1cccnc1 and report it.
Reply: 0.0391

====

Conditions: in THF, 288.15 K
measurement type: solubility (mole fraction)
Returns: the value as a bare number; no unit string appended.

Ask: solubility (mole fraction) for CN(C)/C=C/C(=O)c1cccnc1 ?
Reply: 0.0225
